- target-under-test: recombinant homotrimeric HA, A/Japan/305/57 H2N2 (Influenza A virus A/Japan/305/57 (H2N2))
- protocol-summary: trimeric HA microarray, transfection set 5
- experimental-setup: remark: other sources report otherwise
Trimeric HA Binding RLU reference

{"binder": "TCN-544 (5082_A19) (antibody, V domains shown) VH: QVQLQESGPGLVKPSETLSLTCTVSRGSIGHYFWSWIRQPPGKGLEWIGYISYSGSTKYNPSLRSRVTISVDTSKNQFSLNLNSVTATDTALYYCAREDYDILTGAGPGMEVWGQGTTVTVSS VL: QSMLTQPPSASGTPGQRVTISCSGSSSNIGSNTVNWFKHLPGTAPKLLIYRNDLRPSGVPDRFSGSKSGTSASLAISGLQSEDEADYYCATWDDSLNGFYVFGTGTKVTVL", "Trimeric HA Binding RLU (RLU)": 1000}
{"binder": "TCN-545 (5082_I15) (antibody, V domains shown) VH: QVQLQQWGAGLLKPSETLSLSCAVFGGSFSDYYWTWIRQPPGKGLEWIGEIKHSGRTNYNPSLESRVTISVDTSKNQFSLKLSSVTAADTAIYYCARGTDPDTEGYCRSGSCSAFDFWGQGTLVTVSS VL: EIVLTQSPGTLSLSPGERATLSCRASHFVNYRSLAWYQQTPGQVPRLLIYGASTRATGIPDRFSGSGSGTDFTLTISRLEPEDFAVYFCQQYGGSPRYTFGQGTRLEIK", "Trimeric HA Binding RLU (RLU)": 1360}
